Assay: physchem
Assay type: physicochemical
Conditions: pH 7.4, aqueous buffer, kinetic from dmso stock
Experimental readout: solubility kinetic

Sample records with solubility kinetic:
>>> value_measured("CC(C)(C)CNCc1ccc2c(c1)CC[C@H](NC(=O)c1ccc(OC[C@@H]3CCCO3)cc1)C2")
"50 µM"
>>> value_measured("COC1CCN(Cc2ccc3c(c2)CC[C@H](N2CCc4cc(OC[C@@H]5CCCO5)ccc4C2=O)C3)CC1")
"> 500 µM"
>>> value_measured("O=C(N[C@H]1CCc2cc(CN3CCCC3)ccc2C1)c1ccc(OC[C@@H]2CCCO2)cc1")
"> 500 µM"
>>> value_measured("CC1(C)CCN(Cc2ccc3c(c2)CC[C@H](NC(=O)c2ccc(OC[C@@H]4CCCO4)cc2)C3)CC1")
"450 µM"

Given O=C(N[C@H]1CCc2cc(CN3CC4CCC3C4)ccc2C1)c1ccc(OC[C@@H]2CCCO2)cc1 (stereo partly drawn) , state its recorded solubility kinetic. > 500 µM

Same again, this time with O=C(N[C@H]1CCc2cc(CNC3CCCCC3)ccc2C1)c1ccc(OC[C@@H]2CCCO2)cc1 > 500 µM

----------
Target: human MCH receptor (Homo sapiens, UniProt Q99705)
Sequence (Q99705 whole entry): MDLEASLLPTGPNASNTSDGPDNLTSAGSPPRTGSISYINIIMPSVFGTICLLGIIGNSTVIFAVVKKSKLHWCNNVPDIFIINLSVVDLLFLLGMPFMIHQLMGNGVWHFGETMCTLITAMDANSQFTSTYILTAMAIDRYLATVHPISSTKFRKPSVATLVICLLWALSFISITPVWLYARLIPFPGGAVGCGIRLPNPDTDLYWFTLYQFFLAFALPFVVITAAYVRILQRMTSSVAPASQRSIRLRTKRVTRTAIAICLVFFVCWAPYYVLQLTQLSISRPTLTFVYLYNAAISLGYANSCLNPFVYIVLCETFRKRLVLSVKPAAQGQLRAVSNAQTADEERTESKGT
Experiment: calcium mobilization assay (FLIPR); functional IC50 of MCH1R antagonists
Settings: recombinant HEK293 cell line expressing human MCH receptor; calcium flux after addition of agonist MCH
// reported pIC50 for each item listed
Keep it numeric: pIC50 is minus log10 of the concentration in mol/L.

Sample records with pIC50:
>>> value_measured("O=C(N[C@H]1CCc2cc(CN3CCCCCC3)ccc2C1)c1ccc(OCC2CCCCO2)cc1 (stereo partly shown)")
6.51
>>> value_measured("CC(C)CCN[C@H](C)c1ccc2c(c1)CC[C@H](NC(=O)c1ccc(OC[C@@H]3CCCO3)cc1)C2")
6.92
>>> value_measured("CN(C(=O)c1ccc(OC[C@@H]2CCCO2)cc1)[C@H]1CCc2cc(CN3CCCC3)ccc2C1")
6.17

# evaluate next
Given COc1ccc(CNCc2ccc3c(c2)CC[C@H](NC(=O)c2ccc(OC[C@@H]4CCCO4)cc2)C3)cn1 , state its recorded pIC50. 6.70

----------
// reported pIC50 for each item listed
Target: human MCH receptor (Homo sapiens, UniProt Q99705)
Assay: calcium mobilization assay (FLIPR); functional IC50 of MCH1R antagonists
Conditions: recombinant HEK293 cell line expressing human MCH receptor; calcium flux after addition of agonist MCH
Keep it numeric: pIC50 is minus log10 of the concentration in mol/L.

Sample records with pIC50:
>>> value_measured("CN1CCCCC1c1ccc2c(c1)CC[C@H](NC(=O)c1ccc(OC[C@@H]3CCCO3)cc1)C2 (stereo partly shown) [Example 8-8]")
6.74
>>> value_measured("O=C1CN(Cc2ccc3c(c2)CC[C@H](NC(=O)c2ccc(OC[C@@H]4CCCO4)cc2)C3)CCN1 [Example 3-72]")
5.73
>>> value_measured("COC1CCN(Cc2ccc3c(c2)CC[C@H](N2CCc4cc(OC[C@@H]5CCCO5)ccc4C2=O)C3)CC1 [Example 14]")
6.20
>>> value_measured("CC(C)(C)CNCCc1ccc2c(c1)CC[C@H](NC(=O)c1ccc(OC[C@@H]3CCCO3)cc1)C2 [Example 3-135]")
6.82
>>> value_measured("O=C(N[C@H]1CCc2cc(CNCCCn3ccnc3)ccc2C1)c1ccc(OC[C@@H]2CCCO2)cc1 [Example 3-32]")
6.89
>>> value_measured("CC1(C)CCN(Cc2ccc3c(c2)CC[C@H](NC(=O)c2ccc(OC[C@@H]4CCCO4)cc2)C3)CC1 [Example 3-166]")
6.96

# evaluate next
Given Cc1ccc(CNCc2ccc3c(c2)CC[C@H](NC(=O)c2ccc(OC[C@@H]4CCCO4)cc2)C3)o1 [Example 3-51] , state its recorded pIC50. 6.72
